The values you see were collected from ChEMBL document CHEMBL3885861.

Below, each of the molecules is paired with its reported RALB value.
# Organism: Rattus norvegicus
# protocol.notes: Open TG-GATES - Regimen: Daily Repeat
# Format: toxicity, organism-based, Sprague-Dawley
# Set-up: regimen Daily Repeat, gender Male, age 6 weeks
# test.settings: in vivo, po, 0 mg/kg, […], tissue Plasma, route gavage, dose level Control, time 14 day

# molecule, RALB
rows = [
    ("CCN(CC)N=O", "3.4 g/dL"),
    ("CC(N)=O [ACETAMIDE]", "2.7 g/dL"),
    ("CC(=O)N1CCN(c2ccc(OCC3COC(Cn4ccnc4)(c4ccc(Cl)cc4Cl)O3)cc2)CC1 (stereo not drawn)", "3 g/dL"),
    ("CC(C)Cc1ccc(C(C)C(=O)O)cc1 (stereo not drawn)", "3 g/dL"),
    ("CC(=O)Nc1ccc2c(c1)Cc1ccccc1-2", "3.5 g/dL"),
]

-- ask Output RALB of CC(CCc1ccccc1)NCC(O)c1ccc(O)c(C(N)=O)c1 (stereo not drawn)
-- reply 2.8 g/dL

-- ask Output RALB of CC[C@@H](CO)NCCN[C@@H](CC)CO
-- reply 3 g/dL

-- ask Output RALB of O=C(O)COc1nn(Cc2ccccc2)c2ccccc12
-- reply 3.8 g/dL

----------
# Species: Rattus norvegicus
# protocol.notes: Open TG-GATES - Regimen: Single
# Format: toxicity, organism-based, Sprague-Dawley
# Design: regimen Single, gender Male, age 6 weeks
# test.settings: in vivo, po, 0 mg/kg, 3 h, tissue Kidney, route gavage, dose level Control
Below, each of the compounds is paired with its reported KIDNEY_R value.
Give just the number in g; leave the unit off.

Field: example entries. Status: answers known.
# compound, endpoint.value
data = [
    ("CC(=O)Nc1ccc2c(c1)Cc1ccccc1-2 [2-ACETYLAMINOFLUORENE]", 1),
    ("O=C(O)COc1nn(Cc2ccccc2)c2ccccc12 [BENDAZAC]", 1),
    ("CC(C)Cc1ccc(C(C)C(=O)O)cc1 (configuration not stated) [IBUPROFEN]", 1),
    ("CC(CCc1ccccc1)NCC(O)c1ccc(O)c(C(N)=O)c1 (configuration not stated) [LABETALOL]", 0.9),
    ("CCN(CC)N=O [N-NITROSODIETHYLAMINE]", 0.9),
    ("CC[C@@H](CO)NCCN[C@@H](CC)CO [ETHAMBUTOL]", 1),
]

Continue with the next compound.
-- ask Output KIDNEY_R of CC(=O)N1CCN(c2ccc(OCC3COC(Cn4ccnc4)(c4ccc(Cl)cc4Cl)O3)cc2)CC1 (configuration not stated) [KETOCONAZOLE]
-- reply 0.9

----------
# Species on record: Rattus norvegicus
# protocol.notes: Open TG-GATES - Regimen: Single
# Assay type: toxicity, organism-based, Sprague-Dawley
# Parameters: regimen Single, gender Male, age 6 weeks
# test.settings: in vivo, po, 0 mg/kg, 24 h, tissue Blood, route gavage, dose level Control
quantity: PT (s)
Give just the number in s; leave the unit off.

# compound, scale.unit, PT
measured = [
    ("CC(C)Cc1ccc(C(C)C(=O)O)cc1 (configuration not stated)", "s", 16.5),
    ("CC[C@@H](CO)NCCN[C@@H](CC)CO", "s", 16.4),
    ("CC(CCc1ccccc1)NCC(O)c1ccc(O)c(C(N)=O)c1 (configuration not stated)", "s", 12.8),
    ("CC(=O)N1CCN(c2ccc(OCC3COC(Cn4ccnc4)(c4ccc(Cl)cc4Cl)O3)cc2)CC1 (configuration not stated)", "s", 16.7),
    ("CC(=O)Nc1ccc2c(c1)Cc1ccccc1-2", "s", 11.9),
]

-- ask Output PT of O=C(O)COc1nn(Cc2ccccc2)c2ccccc12
-- reply 12

-- ask Output PT of CCN(CC)N=O
-- reply 11.7
